Protocol description: counter-screen for Nox1 inhibitors: inhibitors of luminol chemiluminescence (AID 1823)
Assay context: HRP/luminol/H2O2 chemiluminescence counterscreen; at 6.7 µM; hits give high values
Among all 16,000 compounds or so, about 70 (0.4%) were called active. The entries come from a sample that favours actives as a whole.
Experimental readout: inhibition (%)
Please reply with the bare figure in % and do not write the unit itself.

Solved entries (count: 3):
- Compound: "CCCCN1Cc2c(nc3cc(-c4ccccc4)[nH]n3c2=O)C1=O"
  Units: "%"
  inhibition: 5.15
- Compound: "O=C(CSC(=S)N1CCCCC1)c1c(F)cccc1F"
  Units: "%"
  inhibition: 26.8
- Compound: "Cc1noc(C)c1C(=O)N1CCOCC1"
  Units: "%"
  inhibition: -1.15

// Input: COC(=O)/C=C/c1cn(C2OCC(CO)C2O)c(=O)[nH]c1=O (stereo unspecified) . Output its inhibition only.
-0.07

Name the recorded inhibition of the item Cc1ccc(S(C)(=O)=NC(=O)NS(=O)(=O)Oc2ccc(Cl)cc2Cl)cc1 (stereo unspecified) in your answer.
2.88

Give a short answer stating reported inhibition for CCOC(=O)c1c(-c2ccco2)csc1NC(=O)Nc1ccc(Cl)cc1 .
3.19

In one line, give reported inhibition of the entry CC(C)CCOS(=O)(=O)c1ccc2c(c1)Cc1cc(S(=O)(=O)OCCC(C)C)ccc1-2 .
-0.63

State its inhibition for this compound: CSc1nsc(SC)c1C(=O)Nc1cc(C(F)(F)F)cc(C(F)(F)F)c1
1.1

Return the recorded inhibition value; entry: CC(=O)c1cc([N+](=O)[O-])c(NC2CCCCC2)s1
3.91

Query inhibition for CS(=O)(=O)Nc1ccc(/C(N)=N/OC(=O)c2cccs2)cc1
2.83

# return recorded inhibition for entry COC(=O)c1c(C(=O)OC)c2n(c1C)CCS2
-2.55
